Task for the reader: assign each of the following molecules its reported MIC.
- Test system: C. albicans ATCC MYA-1237 (F)
- Method description: MIC determination by in vitro antifungal assay
- Format: cell-based, Candida albicans
- Run parameters: Candida albicans, strain F = C. albicans ATCC MYA-1237(R); read-out: MIC
Answers are plain numbers, in µg/mL.

Molecule	MIC, µg/mL
COc1ccc(NNC(=O)c2ccc(Br)cn2)cc1 [Compound 4f]	0.98

Dear reader, for each entry below, please note its MIC.
1. O=C(NNc1ccc(F)cc1F)c1nc(F)ccc1F [Compound 8g]
2. COc1ccc(NNC(=O)c2cnccn2)cc1 [Compound 9f]

(A)
1: 1.95; 2: 0.98

---

- Test system: C. auris AR Bank #386
- Method description: MIC determination by in vitro antifungal assay
- Format: cell-based, Candida auris
- Run parameters: Candidozyma auris; C. auris AR Bank # 386 (Table 2B); read-out: MIC
Measured quantity: MIC (µg/mL)
Answers are plain numbers, in µg/mL.

In the examples that follow, each entry is paired with its recorded MIC.
O=C(NNc1ccc(F)cc1)c1ncc(F)cc1F 0.98
O=C(NNc1ccc(F)cc1)c1ccc(Br)cn1 3.9
O=C(NNc1cccc(Cl)c1)c1ccc(F)cc1F 7.8

For the 3 molecules below, give their MIC values.
1. COc1ccc(NNC(=O)c2ncc(F)cc2F)cc1
2. O=C(NNc1ccc(F)cc1)c1nc(F)ccc1F
3. O=C(NNc1ccc(F)cc1)c1cccc(F)n1

(A)
[0.98, 0.98, 0.98]

Take each entry in turn and give its MIC.
1. COc1cccc(NNC(=O)c2cccc(F)n2)c1
2. COc1ccc(NNC(=O)c2nc(F)ccc2F)cc1
3. O=C(NNc1ccc(F)cc1F)c1nc(F)ccc1F

(A)
[0.98, 0.98, 1.95]

---

Kindly supply the reported MIC values for the records listed here.
- Tested on: Aspergillus fumigatus NRRL 163 (Q)
- Method description: MIC determination by in vitro antifungal assay
- Format: cell-based
- Run parameters: Aspergillus fumigatus, NRRL163; strain Q = A. fumigatus NRRL 163; read-out: MIC

Here are 2 compounds together with their reported answers.
Compound	MIC
O=C(NNc1ccc(F)cc1)c1ncc(F)cc1F [Compound 7d]	> 31.3 µg/mL
O=C(NNc1ccc(F)cc1F)c1ccccn1 [Compound 2g]	> 31.3 µg/mL

Kindly review the next compound as well.
Note to self: MIC recorded for COc1ccc(NNC(=O)c2ccc(F)cc2F)cc1 [Compound 1f] was > 31.3 µg/mL

---

For each entry below, report its MIC value.
- System: A. fumigatus NRRL 6113 (S)
- Method description: MIC determination by in vitro antifungal assay
- Type: cell-based, Aspergillus fumigatus
- Run parameters: Aspergillus fumigatus, NRRL6113; strain S = A. fumigatus NRRL 6113; read-out: MIC
- Method: 10 mg/mL stock solutions of compounds 1a-9j were prepared in dimethyl sulfoxide (DMSO) and were stored at −20° C. in the dark. The antifungal agent amphotericin B (AmB) was purchased from VWR (Radnor PA, USA). AmB was dissolved in DMSO at a final concentration of 5 mg/mL and was stored at −20° C., protected from light. Candida albicans American Type Culture Collection (ATCC) 10231 (strain A), C. albicans ATCC 64124 (B), and C. albicans ATCC MYA-2876 (C) were obtained from Utah State University. […]
Numbers only, in µg/mL.

O=C(NNc1cc(F)cc(F)c1)c1ccccn1 31.3
COc1ccc(NNC(=O)c2ccccn2)cc1 31.3

State recorded MIC for all listed molecules.
1. O=C(NNc1ccc(F)cc1)c1ccccn1
2. O=C(NNc1ccc(F)cc1F)c1ccccn1
3. COc1ccc(NNC(=O)c2cnccn2)cc1
4. COc1ccc(NNC(=O)c2nc(F)ccc2F)cc1
5. COc1ccc(NNC(=O)c2ncc(F)cc2F)cc1
6. O=C(NNc1ccc(F)cc1)c1cccc(F)n1

(A)
[15.6, 31.3, 31.3, 31.3, 31.3, 15.6]

Entry under test: COc1ccc(NNC(=O)c2cccc(F)n2)cc1 . Its MIC was 15.6

---

- Test system: Aspergillus terreus ATCC MYA-3633 (N)
- Method description: MIC determination by in vitro antifungal assay
- Format: cell-based
- Run parameters: Aspergillus terreus, strain N = A. terreus ATCC MYA-3633; read-out: MIC
Entries whose MIC is below 4 µg/mL take 1 (yes); entries at or above 4 µg/mL take 0 (no).

Use the examples below as a reference point.
O=C(NNc1cc(F)cc(F)c1)c1ccc(F)cc1F 0 (no)
O=C(NNc1ccc(F)cc1F)c1nc(F)ccc1F 0 (no)
O=C(NNc1cc(Cl)cc(Cl)c1)c1ccc(F)cc1F 0 (no)
COc1ccc(NNC(=O)c2cnccn2)cc1 0 (no)
O=C(NNc1ccc(F)cc1F)c1cnccn1 1 (yes)

(Q) Quick check: does COc1ccc(NNC(=O)c2ccccn2)cc1 have MIC under 4 µg/mL?
(A) 0 (no)

(Q) Could you please tell me whether MIC recorded for O=C(NNc1cc(F)cc(F)c1)c1cnccn1 is less than 4 µg/mL?
(A) 1 (yes)

(Q) Find out if reported MIC for COc1ccc(NNC(=O)c2ccc(F)cc2F)cc1 is less than 4 µg/mL
(A) 0 (no)

(Q) In the record for COc1ccc(NNC(=O)c2cccc(F)n2)cc1 , is MIC less than 4 µg/mL?
(A) 0 (no)

(Q) Lab note: MIC threshold 4 µg/mL. Does this compound come in strictly under it? O=C(NNc1ccc(F)cc1)c1cccc(F)n1
(A) 1 (yes)

(Q) Below 4 µg/mL on MIC? Entry O=C(NNc1ccc(F)cc1F)c1ccccn1
(A) 1 (yes)

(Q) Is the reported MIC for O=C(NNc1cccc(Cl)c1)c1cnccn1 strictly below 4 µg/mL?
(A) 1 (yes)

(Q) MIC under 4 µg/mL? Item: COc1ccc(NNC(=O)c2nc(F)ccc2F)cc1
(A) 0 (no)

---

- Test system: C. albicans ATCC 10231 (strain A)
- Method description: MIC determination by in vitro antifungal assay (CLSI broth dilution)
- Assay type: cell-based, Candida albicans
- Run parameters: strain A = C. albicans ATCC 10231; no visible growth, 48 h at 35° C.
Measured quantity: MIC (μg/mL^−1)
Give bare numbers, in μg/mL^−1.

Worked examples follow.
Molecule	MIC (μg/mL^−1)
O=C(NNc1cccc(F)c1)c1cnccn1 [Compound 9a]	0.24
COc1ccc(NNC(=O)c2ccc(F)cn2)cc1 [Compound 3f]	0.24

For every record below, what is its MIC?
1. COc1cccc(NNC(=O)c2ccc(F)cn2)c1 [Compound 3c]
2. O=C(NNc1ccc(Cl)cc1)c1cccc(F)n1 [Compound 5e]
3. O=C(NNc1cccc(F)c1)c1ccc(F)cc1F [Compound 1a]
4. COc1cccc(NNC(=O)c2ccccn2)c1 [Compound 2c]
5. O=C(NNc1ccc(Cl)cc1)c1nc(F)ccc1F [Compound 8e]
6. O=C(NNc1ccc(F)cc1)c1ccc(F)cn1 [Compound 3d]
7. C[C@@H]1[C@H](O)[C@@H](C)/C=C/C=C/C=C/C=C/C=C/C=C/C=C/[C@H](O[C@@H]2O[C@H](C)[C@@H](O)[C@H](N)[C@@H]2O)C[C@@H]2O[C@](O)(C[C@@H](O)C[C@@H](O)[C@H](O)CC[C@@H](O)C[C@@H](O)CC(=O)O[C@H]1C)C[C@H](O)[C@H]2C(=O)O [AmB, amphotericin B, reference compound]
8. O=C(NNc1ccc(F)cc1F)c1cccc(Br)n1 [Compound 6g]

(A)
[0.24, 1.95, 0.24, 0.24, 3.9, 0.49, 1.95, 3.9]

Lab note: each molecule below needs its MIC filled in.
1. O=C(NNc1cccc(F)c1)c1ncc(F)cc1F [Compound 7a]
2. O=C(NNc1ccc(Cl)cc1)c1ccc(F)cn1 [Compound 3e]

(A)
0.24
1.95

---

- Test system: Cryptococcus neoformans ATCC MYA-895 (M)
- Method description: MIC determination by in vitro antifungal assay
- Format: cell-based
- Run parameters: strain M = C. neoformans ATCC MYA-895
Measured quantity: MIC (μg/mL^−1)
Numbers only, in μg/mL^−1.

Compound	Assayed system	MIC (μg/mL^−1)
O=C(NNc1cccc(F)c1)c1ccc(Br)cn1	Cryptococcus neoformans ATCC MYA-895 (M)	0.06
COc1cccc(NNC(=O)c2ccccn2)c1	Cryptococcus neoformans ATCC MYA-895 (M)	0.24
O=C(NNc1cccc(F)c1)c1cnccn1	Cryptococcus neoformans ATCC MYA-895 (M)	0.12
O=C(NNc1cccc(Cl)c1)c1ccccn1	Cryptococcus neoformans ATCC MYA-895 (M)	0.12

Each compound below has a recorded value; state its MIC.
1. O=C(NNc1cccc(F)c1)c1ccccn1
2. C[C@@H]1[C@H](O)[C@@H](C)/C=C/C=C/C=C/C=C/C=C/C=C/C=C/[C@H](O[C@@H]2O[C@H](C)[C@@H](O)[C@H](N)[C@@H]2O)C[C@@H]2O[C@](O)(C[C@@H](O)C[C@@H](O)[C@H](O)CC[C@@H](O)C[C@@H](O)CC(=O)O[C@H]1C)C[C@H](O)[C@H]2C(=O)O [AmB, amphotericin B, reference compound]

(A)
[0.12, 7.8]
